All values here come from ChEMBL document CHEMBL1201862.

- Tested on: IGROV-1
- Method: NCI tumour cell line growth inhibition, 48 h
Active and inactive are the calls of the source. Cut-off read from the data, not from the text of the source: active = GI50 up to about 1.1 µM and inactive = higher.
Exercise: for every item that follows, state its recorded GI50.

Worked cases, GI50 given:
Molecule	Assayed target	Recorded endpoint	Assay value
Nc1ccn(CCCC(c2ccccc2)P(=O)(O)O)c(=O)n1 (stereo not given)	IGROV-1	GI50	> 100 µM (inactive)
Cc1nc2c(sc3nc4c(cc32)CCC4)c(=O)o1	IGROV-1	GI50	20.6 µM (inactive)
CC(C)=CCC[C@@H](C)c1c2nc3ccccc3sc-2c(C)c(=O)c1O	IGROV-1	GI50	3.44 µM (inactive)
CCOP(=O)(C[S+](C)[O-])O[C@@H]1C[C@H](C)CC[C@H]1C(C)C (stereo not given in full)	IGROV-1	GI50	3.25 µM (inactive)

Moving on to the next molecule.
Give its GI50 value. Item: CN(C)CCOc1ccc2[nH]c(C(=O)N3CC(CCl)c4c3cc([N+](=O)[O-])c3ccccc43)cc2c1 (stereo not given)
2.14 µM (inactive)
